- ASSAY_TEXT: Twenty-four hour aqueous solubility at 25° C.
- Format: physicochemical
- MEASUREMENT_SETUP: simulated gastric fluid, thermodynamic from solid, crystalline, 0.1N HCl, media pH 1.01
ASSAY_METRIC: solubility at 24 h

(Q) Look up solubility at 24 h: Cc1cc(-n2nc3c(c2-n2ccn(-c4ccc5c(cnn5C)c4F)c2=O)[C@H](C)N(C(=O)c2cc4cc([C@H]5CCOC(C)(C)C5)ccc4n2[C@@]2(c4noc(=O)[nH]4)C[C@@H]2C)CC3)cc(C)c1F [GLP1RA-Ca, hydrate]
(A) < 1 µg/mL

---

- ASSAY_TEXT: Twenty-four hour aqueous solubility at 25° C.
- Type: physicochemical
- MEASUREMENT_SETUP: aqueous buffer, thermodynamic from solid, crystalline, pH 7.5 phosphate buffer (USP), media pH 7.44
- Protocol: Twenty-four Hour Aqueous Solubility of Crystalline GLP1RA-Ca at 25° C. Twenty-Four Hour Aqueous Solubility of Preparation 3 SDD at 25° C.
ASSAY_METRIC: solubility at 24 h (µg/mL)
The figure you give is taken to be in µg/mL; do not add the unit.

(Q) Suppose we examine the compound Cc1cc(-n2nc3c(c2-n2ccn(-c4ccc5c(cnn5C)c4F)c2=O)[C@H](C)N(C(=O)c2cc4cc([C@H]5CCOC(C)(C)C5)ccc4n2[C@@]2(c4noc(=O)[nH]4)C[C@@H]2C)CC3)cc(C)c1F [GLP1RA-Ca, hydrate] ; what solubility at 24 h value has been reported?
(A) 3
